# study-target: Gal(b1-4)GlcNAc(b1-3)Gal(b1-4)GlcNAc(b1-3)Gal(b1-4)GlcNAc
# assay-protocol: glycan array binding signal (z-score within array); higher = stronger binding
# condition-summary: glycan notation: IUPAC condensed, linker removed
Only a selection was taken, and the strongest signals are over-represented in it overall.
assay-endpoint: glycan array binding signal (z-score)
Response field accepts a number only; no unit should be typed.

STA (Solanum tuberosum), Q9S8M0 (protein) NASPPSPSPLPYPQCGMKKGGGKCIKTGECCSIWGWCGTTNAYCSPGYCQKQCPGPYPEGRCGWQANGKSCPTGTGQCCSNGGWCGTTSDYCASKNCQSQCKLPSPPPPPPPPSPPPPSPPSPPPPSPPPPPPPSPPPPSPPPPSPSPPPPPASPPPPPPALPYPQCGIKKGGGKCIKTGECCSIWGWCGTTNAYCSPGYCQKQCPGPYPEGRCGWQANGKSCPTGTGHCCSNAGWCGTTSDYCAPVNCQAQCNTTTLTSPIKNRMRGIESFMLNVV ... 2.26
CLEC5A (Homo sapiens), Q9NY25 (protein) MNWHMIISGLIVVVLKVVGMTLFLLYFPQIFNKSNDGFTTTRSYGTVSQIFGSSSPSPNGFITTRSYGTVCPKDWEFYQARCFFLSTSESSWNESRDFCKGKGSTLAIVNTPEKLKFLQDITDAEKYFIGLIYHREEKRWRWINNSVFNGNVTNQNQNFNCATIGLTKTFDAASCDISYRRICEKNAK ... 0.076

Consider the additional binder presented here.
For record S100A12 (Homo sapiens), P80511 (protein) MTKLEEHLEGIVNIFHQYSVRKGHFDTLSKGELKQLLTKELANTIKNIKDKAVIDEIFQGLDANQDEQVDFQEFISLVAIALKAAHYHTHKE the listed glycan array binding signal (z-score) is -0.226

Data credit: the supplement of paper PMC8728848
